Measured values drawn from the supplement of paper PMC9170038 for this set.

Please respond with reported apparent KD of MS2 coat protein for every item in the list.
- Test system: MS2 coat protein
- methodDescription: apparent KD of MS2 coat protein; designed switch direction (-1 OFF switch, 1 ON switch): -1; higher = weaker reporter binding
- conditionDescription: input ligand: none
Give bare numbers, in nM.

polymerSequence	propertyMeasured	endpointUnit	valueMeasured
CUCUCUCGAGGAUAUACCGUAUGGUGGAAUCUCCUCGGAAGACAUGAGGAUCACCCAUGUAGAAGGCGAGAUGG [Eternabot (L2) Solution 64] (Eterna round: R97, puzzle: Exclusion 2)	apparent KD of MS2 coat protein	nM	31.3
AACACGGGAGGAUAUGCGACAGGAAACAUGAGGAUCACCCAUGUGGAUGGUCGUACAAACGUAGAAGGCCCGCCCA [Eternabot (Original) Solution 1] (Eterna round: R97, puzzle: Exclusion 5)	apparent KD of MS2 coat protein	nM	15.3
AUAUUGUGAGGAUAUGAUCUUAGUAUCGAAAGAUACUAAGUUCAGAAGGCACAUGAGGAUCACCCAUGUUUCUC [Long static hairpin v14] (Eterna round: R97, puzzle: Exclusion 4)	apparent KD of MS2 coat protein	nM	70.6
AGUAGUUGUUUCCGUUCUUACAUGAGGAUCACCCAUGUUUCUUGUCGUGCUCGCGAUGCUCGUCAGACUACCAGAUG [salish99_TOv1_r3_059] (Eterna round: R96, puzzle: Sensor v3, turn-off variant 1)	apparent KD of MS2 coat protein	nM	59.1

Read the next record carefully.
For record GCGCGCUAAGGAUAUACAUGAGGAUCACCCAUGUGCGCGCAAAAGCGCCGCGCGCGCGGUAGAAGGUAGGCAAA [Extraordinary-Exclusion 3] (Eterna round: R97, puzzle: Exclusion 3) the listed apparent KD of MS2 coat protein is 11.4

====

- System: K4 kissing-loop RNA reporter;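 further: bound reporter read as fluorescence of individual clusters on recovered sequencing chips by microscopy, with normalized cluster intensities fitted with a binding model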
- methodDescription: apparent KD of K4 kissing-loop reporter; higher = weaker reporter binding
- conditionDescription: Eterna round: R107; input ligand: tryptophan 2.4 mM
I would appreciate it if you labelled entries t when apparent KD of K4 kissing-loop reporter is 300 nM or higher, otherwise f.

These solved cases illustrate the format of a correct answer.
polymerSequence	assignedLabel
GAGGUAUGCGCAGUGAUGUUGCGACGAGAUACCAGUCGUUCUGUCGACCCUUGGCAGCUCCCACCAGACGUACGAGUUUGUGUUG [theeternabot_sameState_KL_Theo_A_10]	f
AUUUAGACGAGUGAUGUUCGUGUUUUUUCAGAGGAUAUGCGUAAUUGCAGAAGGCUGUAUUUAUAUAUGUUUUGUUUUUUUAAAA [JR_ExcFMNA_Sub008]	f
GUUGUAUACUGAAGGAGCGAGUAGUGGAAACAUAAACUCAUUGCGAGUGAUGUUCGCAGUACUCAGGUAGGUCGCAGUAAUCGUA [Exclusion Arginine B Gf 10]	t
UUAGAGAUCUCAGGAUAUGAGUGAUGUUGAUAUCAAGAUCUGAGAUAGAAUUCUAUCUCAGAUCAAUCAGAAGGGAGAUCUCAUU [AK1.3 Exc FMN B]	f
UGAUACCAGACUGAUACCAGCCAGUGAUGUUGGCUAAGCCAAAUAGGUGUCAAAGACACCGGCCCUUGGCAGCAGUCUGGUAUCU [TheoBX 2 #SwitchBubble #StaticStem]	f

State whether the measured apparent KD of K4 kissing-loop reporter reaches 300 nM, counting equality as reaching it, for GUUUGCCGGUCCCGGAGUGAUGUUCCGGAUACCAGCAACUUCCUUUGCCCUUGGCAGCCGUAGCUAUACCGGGUGGCAGCUUCAG [Anresoenus]
f
